- system-tested: human Oxytocin (OTR) receptor (Homo sapiens)
- Construct: expressed in transfected cells
- Sequence (P30559 whole entry): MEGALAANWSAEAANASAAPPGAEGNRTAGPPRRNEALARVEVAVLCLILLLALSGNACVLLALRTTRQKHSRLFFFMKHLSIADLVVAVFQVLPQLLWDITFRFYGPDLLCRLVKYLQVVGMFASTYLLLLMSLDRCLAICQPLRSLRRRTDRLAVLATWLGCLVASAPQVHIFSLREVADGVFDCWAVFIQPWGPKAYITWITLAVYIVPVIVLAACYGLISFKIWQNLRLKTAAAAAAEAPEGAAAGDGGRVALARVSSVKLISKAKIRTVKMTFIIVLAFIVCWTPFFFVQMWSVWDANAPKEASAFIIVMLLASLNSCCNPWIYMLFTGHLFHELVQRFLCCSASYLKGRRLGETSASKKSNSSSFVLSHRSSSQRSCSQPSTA
- assay: Calcium flux assay (FLIPR) in CHO cells expressing human OTR
- Format: cell-based
- settings: CHO; maximum response normalized to endogenous full agonist = 100%; read-out: hOT efficacy
Where a SMILES comes first, the peptide text is derived from it.
// values below are reported Emax
Give just the numeric value; % need not be written.

CC[C@H](C)[C@@H]1NC(=O)[C@H](Cc2ccc(O)cc2)NC(=O)CCS(=O)(=O)CC[C@@H](C(=O)N(CC(=O)N[C@H](C(=O)NCC(N)=O)C(C)C)C2CC2)NC(=O)[C@H](CC(N)=O)NC(=O)[C@H](CCC(N)=O)NC1=O [Example 29] (HELM PEPTIDE1{Y.I.Q.N.[O=C([C@H](CCS(=O)(=O)CCC(=O)[*:3])N[*:1])[*:2]].[O=C(CN(C1CC1)[*:1])[*:2]].V.G.[am]}$PEPTIDE1,PEPTIDE1,1:R1-5:R3$$$V2.0) :: 105

Shifting focus to the compound that follows.
Lab note: measured Emax of CC[C@H](C)[C@@H]1NC(=O)[C@H](Cc2ccc(O)cc2)NC(=O)CCS(=O)(=O)CC[C@@H](C(=O)N2C[C@@H](F)C[C@H]2C(=O)N[C@@H](CC(C)C)C(=O)NCC(N)=O)NC(=O)[C@H](CC(N)=O)NC(=O)[C@H](CCC(N)=O)NC1=O [Example 7] (HELM PEPTIDE1{Y.I.Q.N.[O=C([C@H](CCS(=O)(=O)CCC(=O)[*:3])N[*:1])[*:2]].[O=C([C@@H]1C[C@H](F)CN1[*:1])[*:2]].L.G.[am]}$PEPTIDE1,PEPTIDE1,1:R1-5:R3$$$V2.0) was 141

Each recorded value in this set is attributed to patent US20170081368A1.
